- experimental target: Human recombinant PDE2A (hPDE2A) (Homo sapiens)
- Construct: His tag (inferred from metal chelate purification); made in house; host or cells: Sf9 insect cells (baculovirus)
- Sequence (O00408 whole entry): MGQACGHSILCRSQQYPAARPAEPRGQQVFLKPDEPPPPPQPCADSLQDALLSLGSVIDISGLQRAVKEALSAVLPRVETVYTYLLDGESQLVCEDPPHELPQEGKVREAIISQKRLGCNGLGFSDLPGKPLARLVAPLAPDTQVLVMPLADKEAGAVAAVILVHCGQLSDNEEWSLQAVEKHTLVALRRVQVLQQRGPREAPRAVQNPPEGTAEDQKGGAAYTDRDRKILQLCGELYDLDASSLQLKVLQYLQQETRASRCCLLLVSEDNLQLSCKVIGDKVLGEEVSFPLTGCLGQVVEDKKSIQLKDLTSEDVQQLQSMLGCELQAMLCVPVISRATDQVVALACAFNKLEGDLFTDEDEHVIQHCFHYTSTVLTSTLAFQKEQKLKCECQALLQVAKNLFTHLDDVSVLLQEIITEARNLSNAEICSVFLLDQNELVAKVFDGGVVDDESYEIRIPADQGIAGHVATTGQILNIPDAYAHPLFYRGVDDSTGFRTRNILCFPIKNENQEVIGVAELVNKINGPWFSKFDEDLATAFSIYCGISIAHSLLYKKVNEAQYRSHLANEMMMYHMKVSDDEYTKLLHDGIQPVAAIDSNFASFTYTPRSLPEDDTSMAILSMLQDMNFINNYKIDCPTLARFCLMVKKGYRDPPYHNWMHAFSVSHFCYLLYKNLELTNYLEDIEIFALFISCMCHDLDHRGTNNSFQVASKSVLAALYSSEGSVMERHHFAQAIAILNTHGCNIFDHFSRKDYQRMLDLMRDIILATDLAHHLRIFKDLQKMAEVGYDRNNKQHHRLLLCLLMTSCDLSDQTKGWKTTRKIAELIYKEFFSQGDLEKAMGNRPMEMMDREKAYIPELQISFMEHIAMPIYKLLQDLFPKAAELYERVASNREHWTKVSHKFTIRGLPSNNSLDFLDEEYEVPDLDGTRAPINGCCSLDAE
- measurement protocol: In vitro assay PDE2A (SPA, 3H-cGMP hydrolysis)
- Assay type: biochemical
- assay context: human recombinant PDE2A, 10 μM cGMP substrate; read-out: hPDE2A pIC50 (converted)
experimental endpoint: IC50 (nM)
Report the figure in nM without appending any unit label.

Kindly note the recorded IC50 for Cc1c(C(=O)N2CC[C@@H](C)[C@H](c3cc(C(F)F)nc4ncnn34)C2)oc2ccccc12 , which is 0.174

Kindly note the recorded IC50 for COc1cccc2cc(C(=O)N3CC[C@@H](C)[C@H](c4cc(C(F)F)nc5ncnn45)C3)oc12 , which is 0.871

Kindly note the recorded IC50 for C[C@@H]1CCN(C(=O)c2ccc(F)c(C(F)F)c2)C[C@H]1c1cc(C(F)F)nc2ncnn12 , which is 12.9

Kindly note the recorded IC50 for Cc1cc([C@@H]2CN(C(=O)c3cc(C)sc3C)CC[C@H]2C)n2ncnc2n1 , which is 6.17

====

- experimental target: Human recombinant PDE3A (hPDE3A) (Homo sapiens)
- Construct: purchased Scottish Biomedical; host or cells: Sf9 insect cells
- Sequence (Q14432 whole entry): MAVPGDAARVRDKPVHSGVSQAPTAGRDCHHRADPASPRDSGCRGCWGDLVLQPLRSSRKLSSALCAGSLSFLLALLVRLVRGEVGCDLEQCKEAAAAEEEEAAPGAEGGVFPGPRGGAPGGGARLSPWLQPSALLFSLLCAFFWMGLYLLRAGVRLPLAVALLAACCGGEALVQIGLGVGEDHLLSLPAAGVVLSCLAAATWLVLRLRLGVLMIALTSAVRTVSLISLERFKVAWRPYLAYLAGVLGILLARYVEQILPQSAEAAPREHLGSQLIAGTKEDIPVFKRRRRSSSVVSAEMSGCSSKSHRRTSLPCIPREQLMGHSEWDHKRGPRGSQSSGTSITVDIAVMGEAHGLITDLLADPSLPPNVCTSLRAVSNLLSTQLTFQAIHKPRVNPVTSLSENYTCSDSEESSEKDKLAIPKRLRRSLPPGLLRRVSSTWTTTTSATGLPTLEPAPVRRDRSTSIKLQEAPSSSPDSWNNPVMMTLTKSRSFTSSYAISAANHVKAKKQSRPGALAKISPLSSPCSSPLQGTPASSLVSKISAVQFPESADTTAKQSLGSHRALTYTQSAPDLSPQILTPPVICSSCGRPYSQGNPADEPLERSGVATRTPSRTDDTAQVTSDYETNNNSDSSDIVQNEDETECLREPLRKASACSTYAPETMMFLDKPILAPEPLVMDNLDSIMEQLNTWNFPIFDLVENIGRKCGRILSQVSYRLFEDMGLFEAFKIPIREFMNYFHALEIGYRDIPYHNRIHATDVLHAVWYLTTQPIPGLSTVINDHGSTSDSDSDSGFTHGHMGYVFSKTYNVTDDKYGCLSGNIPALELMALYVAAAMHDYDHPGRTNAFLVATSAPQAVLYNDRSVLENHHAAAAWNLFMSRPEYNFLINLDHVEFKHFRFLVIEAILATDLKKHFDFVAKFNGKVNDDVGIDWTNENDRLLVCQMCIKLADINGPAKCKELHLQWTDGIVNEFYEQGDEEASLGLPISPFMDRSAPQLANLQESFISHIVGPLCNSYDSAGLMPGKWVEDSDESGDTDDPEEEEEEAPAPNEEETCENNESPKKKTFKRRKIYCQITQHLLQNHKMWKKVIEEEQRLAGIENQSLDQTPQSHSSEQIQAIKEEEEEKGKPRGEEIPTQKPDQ
- measurement protocol: In vitro assay PDE3A (SPA, 3H-cAMP hydrolysis);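 also: the method names PDE3A and the table heading PDE3B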
- Type: biochemical
- assay context: hPDE3B pIC50; read-out: pIC50 (converted)
experimental endpoint: IC50 (µM)
Report the figure in µM without appending any unit label.

Kindly note the recorded IC50 for Cc1c(C(=O)N2[C@H]3CC[C@H](c4cc(C(F)F)nc5ncnn45)[C@@H]2CC3)oc2ccccc12 , which is 0.813

Kindly note the recorded IC50 for C[C@@H]1CCN(C(=O)c2ccc3ccccc3n2)C[C@H]1c1cc(C(F)F)nc2ncnn12 , which is 0.724

Kindly note the recorded IC50 for Cc1cc(C#N)cc(C(=O)N2CC[C@@H](C)[C@H](c3cc(C(F)F)nc4ncnn34)C2)c1 , which is 7.76

Kindly note the recorded IC50 for C[C@@H]1CCN(C(=O)c2ccnc(C3CC3)c2F)C[C@H]1c1cc(C(F)F)nc2ncnn12 , which is 0.708

====

- experimental target: Human recombinant PDE3A (hPDE3A) (Homo sapiens)
- Construct: purchased Scottish Biomedical; host or cells: Sf9 insect cells
- measurement protocol: In vitro assay PDE3A (SPA, 3H-cAMP hydrolysis);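 also: the method names PDE3A and the table heading PDE3B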
- Format: biochemical
- assay context: hPDE3B pIC50; read-out: pIC50 (converted)
experimental endpoint: IC50 (µM)
Report the figure in µM without appending any unit label.

Kindly note the recorded IC50 for C[C@@H]1CCN(C(=O)c2ccc(F)c(C(F)F)c2)C[C@H]1c1cc(C(F)F)nc2ncnn12 , which is 3.89

Kindly note the recorded IC50 for C[C@@H]1CCN(C(=O)c2cc(C(C)(C)C)on2)C[C@H]1c1cc(C(F)F)nc2ncnn12 , which is 1.55

Kindly note the recorded IC50 for Cc1nc2ccc(C(=O)N3[C@H]4CC[C@H](c5cc(C(F)F)nc6ncnn56)[C@@H]3CC4)cc2o1 , which is 6.61

Kindly note the recorded IC50 for Cc1cc([C@@H]2CN(C(=O)c3cc(C)sc3C)CC[C@H]2C)n2ncnc2n1 , which is 1.66

Kindly note the recorded IC50 for O=C(c1ccc2sccc2c1)N1[C@H]2CC[C@H](c3cc(C(F)F)nc4ncnn34)[C@@H]1CC2 , which is 1.35

Kindly note the recorded IC50 for Cc1cc(C(=O)N2[C@H]3CC[C@H](c4cc(C(F)F)nc5ncnn45)[C@@H]2CC3)cc(C)c1F , which is 6.03

The values you see were collected from patent US10947242B2.
